# measured_on: Citron Rho-interacting kinase (Homo sapiens)
# Sequence (O14578 whole entry): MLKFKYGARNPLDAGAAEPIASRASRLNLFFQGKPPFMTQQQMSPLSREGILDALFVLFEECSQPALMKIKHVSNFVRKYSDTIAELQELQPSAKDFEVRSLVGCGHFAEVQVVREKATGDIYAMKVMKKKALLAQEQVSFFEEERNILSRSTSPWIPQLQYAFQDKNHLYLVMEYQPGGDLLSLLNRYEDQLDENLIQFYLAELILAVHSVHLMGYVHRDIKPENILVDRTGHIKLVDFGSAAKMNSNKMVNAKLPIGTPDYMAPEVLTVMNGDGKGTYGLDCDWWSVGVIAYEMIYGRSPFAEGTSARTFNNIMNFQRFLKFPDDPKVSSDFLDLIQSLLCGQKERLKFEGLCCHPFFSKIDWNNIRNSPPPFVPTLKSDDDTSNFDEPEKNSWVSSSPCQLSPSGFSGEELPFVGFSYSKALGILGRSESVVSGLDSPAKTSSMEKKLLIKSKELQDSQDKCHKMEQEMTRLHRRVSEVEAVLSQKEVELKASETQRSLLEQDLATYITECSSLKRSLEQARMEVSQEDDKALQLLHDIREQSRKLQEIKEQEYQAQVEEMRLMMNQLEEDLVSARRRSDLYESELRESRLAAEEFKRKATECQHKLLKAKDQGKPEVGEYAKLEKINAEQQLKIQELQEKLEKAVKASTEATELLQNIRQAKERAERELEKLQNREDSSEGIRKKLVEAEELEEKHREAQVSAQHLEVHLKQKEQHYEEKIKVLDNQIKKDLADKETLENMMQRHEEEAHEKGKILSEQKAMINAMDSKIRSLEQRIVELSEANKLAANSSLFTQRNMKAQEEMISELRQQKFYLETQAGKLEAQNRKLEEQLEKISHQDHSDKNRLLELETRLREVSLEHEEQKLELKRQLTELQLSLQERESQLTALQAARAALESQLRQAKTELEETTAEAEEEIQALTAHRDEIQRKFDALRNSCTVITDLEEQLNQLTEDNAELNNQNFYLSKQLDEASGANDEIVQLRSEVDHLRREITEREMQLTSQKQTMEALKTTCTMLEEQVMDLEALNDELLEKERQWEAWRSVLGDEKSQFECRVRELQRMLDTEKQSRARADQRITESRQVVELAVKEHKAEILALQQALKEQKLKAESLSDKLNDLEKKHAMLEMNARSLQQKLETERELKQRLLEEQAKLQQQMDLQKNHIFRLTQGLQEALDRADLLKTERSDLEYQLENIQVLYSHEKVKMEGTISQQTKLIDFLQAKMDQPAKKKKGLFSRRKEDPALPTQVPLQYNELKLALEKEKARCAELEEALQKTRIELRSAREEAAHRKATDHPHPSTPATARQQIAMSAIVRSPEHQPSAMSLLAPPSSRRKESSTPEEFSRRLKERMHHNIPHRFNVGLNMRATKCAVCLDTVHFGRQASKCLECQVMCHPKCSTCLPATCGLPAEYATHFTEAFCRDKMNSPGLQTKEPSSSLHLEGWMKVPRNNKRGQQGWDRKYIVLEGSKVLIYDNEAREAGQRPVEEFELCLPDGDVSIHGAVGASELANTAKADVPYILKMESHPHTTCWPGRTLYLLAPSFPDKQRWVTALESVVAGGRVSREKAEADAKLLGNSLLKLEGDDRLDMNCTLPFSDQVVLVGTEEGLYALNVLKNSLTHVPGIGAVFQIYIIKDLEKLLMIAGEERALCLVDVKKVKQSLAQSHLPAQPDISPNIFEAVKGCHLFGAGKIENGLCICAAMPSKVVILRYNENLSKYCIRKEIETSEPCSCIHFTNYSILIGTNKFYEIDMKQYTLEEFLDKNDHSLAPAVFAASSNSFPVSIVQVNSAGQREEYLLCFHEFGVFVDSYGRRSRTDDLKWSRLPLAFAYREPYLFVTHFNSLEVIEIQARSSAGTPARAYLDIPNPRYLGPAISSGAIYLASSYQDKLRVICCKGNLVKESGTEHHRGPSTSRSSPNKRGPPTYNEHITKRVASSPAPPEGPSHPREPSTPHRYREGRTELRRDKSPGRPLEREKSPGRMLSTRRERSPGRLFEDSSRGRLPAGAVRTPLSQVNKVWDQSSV
Calls of active or inactive are those of the source.
// classify into yes (1) (active), no (0) (inactive)

What did this assay record as the result for `Cn1ncc(Cl)c1-c1cc(C(=O)N[C@H](CN)Cc2cccc(F)c2)sc1Cl` ?
yes (1)

O=C(Nc1ccc(-c2ccnc(Nc3ccc(N4CCOCC4)cc3)n2)cc1)C1CCCN1 (stereo not drawn) , same question.
yes (1)

`CCN1CCN(Cc2ccc(-c3cc4c(N[C@H](C)c5ccccc5)ncnc4[nH]3)cc2)CC1` , same question.
no (0)

`C[C@@H](Nc1cc(F)cc(F)c1)c1cc(C(=O)N(C)C)cc2c(=O)cc(N3CCOCC3)oc12` , same question.
no (0)

`C=CC(=O)N1CCC(Oc2cc3c(Nc4ccc(Cl)c(Cl)c4F)ncnc3cc2OC)CC1` , same question.
no (0)

CN1N=C(N)c2cn([C@@H]3O[C@H](COP(=O)(O)O)[C@@H](O)[C@H]3O)c3ncnc1c23 [TRICIRIBINE PHOSPHATE] , same question.
no (0)

Cc1cc2c(F)c(Oc3ncnn4cc(OC[C@@H](C)OC(=O)[C@H](C)N)c(C)c34)ccc2[nH]1 [BRIVANIB ALANINATE] , same question.
no (0)

`CCc1cnn2c(NCc3ccc[n+]([O-])c3)cc(N3CCCC[C@H]3CCO)nc12` , same question.
no (0)

###

Target sequence: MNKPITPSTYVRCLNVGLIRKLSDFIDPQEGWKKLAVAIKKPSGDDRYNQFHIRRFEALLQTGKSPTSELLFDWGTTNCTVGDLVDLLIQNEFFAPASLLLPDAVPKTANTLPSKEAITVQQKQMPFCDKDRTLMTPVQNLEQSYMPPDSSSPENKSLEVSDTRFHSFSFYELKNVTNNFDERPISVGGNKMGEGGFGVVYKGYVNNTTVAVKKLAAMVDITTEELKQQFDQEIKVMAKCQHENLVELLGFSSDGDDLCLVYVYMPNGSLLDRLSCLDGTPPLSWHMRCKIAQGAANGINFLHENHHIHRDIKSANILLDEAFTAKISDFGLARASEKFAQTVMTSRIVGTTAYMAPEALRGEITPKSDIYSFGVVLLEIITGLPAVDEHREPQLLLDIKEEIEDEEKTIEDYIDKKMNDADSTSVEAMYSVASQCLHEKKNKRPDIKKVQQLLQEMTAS
Calls of active or inactive are those of the source.
measured_quantity: Kd

Which value of Kd has been reported for Cn1ncc(Cl)c1-c1cc(C(=O)N[C@H](CN)Cc2cccc(F)c2)sc1Cl [AFURESERTIB] in the records?
> 30 µM (inactive)

Cn1cc(-c2ccc(F)c(C(F)(F)F)c2)nc1C1CCN(c2ncnc3[nH]ncc23)CC1 [LY-2584702] , same question.
> 30 µM (inactive)

CCS(=O)(=O)N1CC(CC#N)(n2cc(-c3ncnc4[nH]ccc34)cn2)C1 [BARICITINIB] , same question.
> 30 µM (inactive)

O=C(c1ccc(F)c(F)c1Nc1ccc(I)cc1F)N1CC(O)([C@@H]2CCCCN2)C1 [COBIMETINIB] , same question.
> 30 µM (inactive)

COc1ccc(-c2ccc3c(N4CCOC[C@@H]4C)nc(N4CCOC[C@@H]4C)nc3n2)cc1CO [AZD-8055] , same question.
> 30 µM (inactive)

Cc1cc2c(F)c(Oc3ncnn4cc(OC[C@@H](C)OC(=O)[C@H](C)N)c(C)c34)ccc2[nH]1 [BRIVANIB ALANINATE] , same question.
> 30 µM (inactive)

COc1cc(OC)c(/C=C/S(=O)(=O)Cc2ccc(OC)c(NCC(=O)O)c2)c(OC)c1 [RIGOSERTIB] , same question.
> 30 µM (inactive)

COCCNCc1ccc(-c2cc3nccc(Oc4ccc(NC(=S)NC(=O)Cc5ccc(F)cc5)cc4F)c3s2)nc1 [GLESATINIB] , same question.
> 30 µM (inactive)

###

# measured_on: General transcription and DNA repair factor IIH helicase subunit XPD (Homo sapiens)
# Sequence (P18074 whole entry): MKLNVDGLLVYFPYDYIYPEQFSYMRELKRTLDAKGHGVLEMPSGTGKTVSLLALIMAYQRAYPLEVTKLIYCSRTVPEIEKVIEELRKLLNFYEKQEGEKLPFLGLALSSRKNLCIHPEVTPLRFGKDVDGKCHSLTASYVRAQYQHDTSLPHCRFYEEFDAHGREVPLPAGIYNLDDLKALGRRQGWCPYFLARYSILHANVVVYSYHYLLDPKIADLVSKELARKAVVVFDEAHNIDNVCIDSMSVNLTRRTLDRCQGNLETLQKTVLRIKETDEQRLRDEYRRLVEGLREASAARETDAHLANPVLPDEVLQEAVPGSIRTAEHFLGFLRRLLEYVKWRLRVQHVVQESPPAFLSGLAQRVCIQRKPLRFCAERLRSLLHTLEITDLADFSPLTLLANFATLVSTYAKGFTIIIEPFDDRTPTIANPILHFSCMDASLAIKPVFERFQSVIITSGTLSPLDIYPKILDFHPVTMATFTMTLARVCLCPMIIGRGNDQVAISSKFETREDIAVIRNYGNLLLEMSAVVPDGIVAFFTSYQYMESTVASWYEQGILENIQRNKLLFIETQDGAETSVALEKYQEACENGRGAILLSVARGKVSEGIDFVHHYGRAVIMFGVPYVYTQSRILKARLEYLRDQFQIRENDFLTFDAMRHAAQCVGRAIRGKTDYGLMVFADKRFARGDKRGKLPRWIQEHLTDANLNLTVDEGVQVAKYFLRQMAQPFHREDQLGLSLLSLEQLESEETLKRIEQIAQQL
# particulars: read-out: Kd apparent; k-562, colo 205, sk-n-be(2) and mv-4-11; further: in the data inactive means no Kd found up to 30 µM
Calls of active or inactive are those of the source. Rule as the data show it: actives have a measured Kd and inactives only a lower limit.
measured_quantity: Kd

Lookup: Kd / General transcription and DNA repair factor IIH helicase subunit XPD (Homo sapiens) / `O=C1NC(=O)/C(=C/c2ccc3nccc(-c4ccncc4)c3c2)S1`
> 30 µM (inactive)

`Cn1cc(-c2ccc(F)c(C(F)(F)F)c2)nc1C1CCN(c2ncnc3[nH]ncc23)CC1` , same question.
> 30 µM (inactive)

`O=c1sn(-c2cccc3ccccc23)c(=O)n1Cc1ccccc1` , same question.
> 30 µM (inactive)

###

Record form. Attribute: Kd. Fill in for each entry.
# measured_on: Cyclin-G-associated kinase (Homo sapiens, UniProt O14976)
# Sequence (O14976 whole entry): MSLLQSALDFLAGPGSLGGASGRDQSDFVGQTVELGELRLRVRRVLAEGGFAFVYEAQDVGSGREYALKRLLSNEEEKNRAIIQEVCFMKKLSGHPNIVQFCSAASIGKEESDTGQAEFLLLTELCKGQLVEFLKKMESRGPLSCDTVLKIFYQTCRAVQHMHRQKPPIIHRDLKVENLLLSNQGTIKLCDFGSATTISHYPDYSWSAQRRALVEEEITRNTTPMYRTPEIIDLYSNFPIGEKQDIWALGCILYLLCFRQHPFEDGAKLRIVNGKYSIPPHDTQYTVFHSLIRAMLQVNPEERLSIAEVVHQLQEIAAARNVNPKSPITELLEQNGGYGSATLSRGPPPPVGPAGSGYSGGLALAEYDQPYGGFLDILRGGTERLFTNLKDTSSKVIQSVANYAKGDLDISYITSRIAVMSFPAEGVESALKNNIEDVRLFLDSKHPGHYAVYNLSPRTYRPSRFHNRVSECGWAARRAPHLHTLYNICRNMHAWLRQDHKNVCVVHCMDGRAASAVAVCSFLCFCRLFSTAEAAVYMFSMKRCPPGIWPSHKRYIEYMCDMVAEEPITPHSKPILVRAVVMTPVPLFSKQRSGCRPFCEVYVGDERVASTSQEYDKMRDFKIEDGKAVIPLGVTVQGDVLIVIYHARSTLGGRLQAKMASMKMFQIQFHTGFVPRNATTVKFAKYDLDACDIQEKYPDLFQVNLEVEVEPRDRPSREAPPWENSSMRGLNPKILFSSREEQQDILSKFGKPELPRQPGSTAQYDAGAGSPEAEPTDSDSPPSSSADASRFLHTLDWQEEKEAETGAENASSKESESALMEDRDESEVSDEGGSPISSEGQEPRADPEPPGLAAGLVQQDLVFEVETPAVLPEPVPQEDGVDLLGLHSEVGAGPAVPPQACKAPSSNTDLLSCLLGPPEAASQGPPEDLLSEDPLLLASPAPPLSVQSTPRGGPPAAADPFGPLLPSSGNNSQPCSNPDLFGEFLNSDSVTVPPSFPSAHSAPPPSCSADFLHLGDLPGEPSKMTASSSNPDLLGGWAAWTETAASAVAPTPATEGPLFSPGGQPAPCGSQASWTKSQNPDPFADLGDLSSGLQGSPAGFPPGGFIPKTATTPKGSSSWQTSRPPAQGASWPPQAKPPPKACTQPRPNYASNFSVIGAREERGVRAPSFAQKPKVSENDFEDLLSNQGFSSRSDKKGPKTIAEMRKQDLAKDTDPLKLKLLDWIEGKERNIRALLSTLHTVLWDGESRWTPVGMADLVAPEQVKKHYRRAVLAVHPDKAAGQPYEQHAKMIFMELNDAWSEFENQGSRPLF
Activity calls are given as the source filed them.

Which value of Kd has been reported for C[C@@H](c1ccc2nccn2c1)n1nnc2ncc(-c3cnn(C)c3)nc21 [SAVOLITINIB] in the records?
> 30 µM (inactive)

COc1cc2nccc(Oc3ccc(NC(=O)Nc4cc(C)on4)c(Cl)c3)c2cc1OC [TIVOZANIB] , same question.
> 30 µM (inactive)

`N[C@@H]1CCCN(c2c(/C=C3\SC(=O)NC3=O)cccc2-c2ccccc2)C1` , same question.
> 30 µM (inactive)

CC[C@H](Nc1ncnc2[nH]cnc12)c1nc2cccc(F)c2c(=O)n1-c1ccccc1 [IDELALISIB] , same question.
> 30 µM (inactive)

CNS(=O)(=O)Nc1nccc(Cc2c(C)c3ccc(Oc4ncccn4)cc3oc2=O)c1F [AVUTOMETINIB] , same question.
> 30 µM (inactive)
